# Target System: BRD4 (BD1) (Homo sapiens, UniProt O60885)
# Construct: with relatively long constructs also being possible, preferably amino acids 44-168
# Assay: Binding assay BRD4/acetylated peptide H4 (TR-FRET protein-protein interaction assay)
Readout Kind: IC50 (nM)

Solved entries (count: 2):
*Q* # lookup: IC50 of CNC(=O)N1N=C(c2ccc(-c3ccccc3)cc2)c2cc(OC)c(OC)cc2CC1C (racemic)
*A* 80

*Q* # lookup: IC50 of CCC1Cc2cc(OC)c(OC)cc2C(c2ccc(N3CC(F)C3)cc2)=NN1C(=O)NC (racemic)
*A* 1220

P = CNC(=O)N1N=C(c2ccc(N3CCOCC3)cc2)c2cc(NC(C)=O)ccc2CC1C (racemic)
Q = CNC(=O)N1N=C(c2ccc(-c3cc[nH]n3)cc2)c2cc(OC)c(OC)cc2CC1C (racemic)
*Q* Of the pair P and Q , name the member with the lesser recorded IC50. Refer to your chosen entry by its label in the reply.
*A* Q
(Q: 50 nM, P: 120 nM)

----------
# Target System: BRD4 (BD1) (Homo sapiens)
# Construct: with relatively long constructs also being possible, preferably amino acids 44-168
# Assay: Binding assay BRD4/acetylated peptide H4 (TR-FRET protein-protein interaction assay)
Readout Kind: IC50 (nM)

*Q* # lookup: IC50 of CNC(=O)N1N=C(c2ccc(-c3ccccc3C(F)(F)F)cc2)c2cc(OC)c(OC)cc2CC1C (racemic)
*A* 340

*Q* # lookup: IC50 of CNC(=O)N1N=C(c2ccc(-c3cccn3C)cc2)c2cc(OC)c(OC)cc2CC1C (racemic)
*A* 70

*Q* # lookup: IC50 of CNC(=O)N1N=C(c2ccc(-c3cccc(C(N)=O)c3)cc2)c2cc(OC)c(OC)cc2CC1C (racemic)
*A* 40

*Q* # lookup: IC50 of CNC(=O)N1N=C(c2ccc(N3CCS(=O)(=O)CC3)cc2)c2cc(OC)c(OC)cc2C[C@@H]1C
*A* 20

1 = CNC(=O)C1CCN(c2ccc(C3=NN(C(=O)NC)C(C)Cc4cc(OC)c(OC)cc43)cc2)CC1 (racemic)
2 = CNC(=O)N1N=C(c2ccc(N3CCN(C(=O)C(C)(C)O)CC3)cc2)c2cc(OC)c(OC)cc2C[C@@H]1C
*Q* Of the pair 1 and 2 , name the member with the lesser recorded IC50. Refer to your chosen entry by its label in the reply.
*A* 2
(2: 30 nM, 1: 60 nM)

I = CNC(=O)N1N=C(c2ccc(N3CCC(N(C)C)CC3)cc2)c2cc(OC)c(OC)cc2CC1C (racemic)
II = CNC(=O)N1N=C(c2ccc(-c3c(C)noc3C)cc2)c2cc(N3CCOCC3)ccc2C[C@H]1C
III = CNC(=O)N1N=C(c2ccc(Cl)cc2)c2ccc(-c3cn(C)nn3)cc2CC1C (racemic)
*Q* Arrange the 3 molecules from largest to smallest IC50. Output the labels ranked as instructed.
*A* II, III, I
(II: 730 nM, III: 320 nM, I: 70 nM)

I = CNC(=O)N1N=C(c2ccc(N3CCN(C(C)=O)CC3)cc2)c2cc(OC)c(OC)cc2C[C@@H]1C
II = CNC(=O)N1N=C(c2ccc(N3CCN(C(C)C)CC3)cc2)c2cc(OC)c(OC)cc2CC1C (racemic)
*Q* Response body: label of entry with the larger IC50; valid values I , II . Refer to your chosen entry by its label in the reply.
*A* II
(II: 130 nM, I: 20 nM)

----------
# Target System: BRD4 (BD1) (Homo sapiens)
# Construct: with relatively long constructs also being possible, preferably amino acids 44-168
# Assay: Binding assay BRD4/acetylated peptide H4 (TR-FRET protein-protein interaction assay)
pIC50: −log10 of the molar value.
Readout Kind: pIC50

*Q* # lookup: pIC50 of CNC(=O)N1N=C(c2ccc(N3CCNCC3)cc2)c2cc(OC)c(OC)cc2C[C@@H]1C
*A* 7.15

*Q* # lookup: pIC50 of CNC(=O)N1N=C(c2ccc(-c3ccc(O)nc3)cc2)c2cc(OC)c(OC)cc2C[C@@H]1C
*A* 7.70

*Q* # lookup: pIC50 of CNC(=O)N1N=C(c2ccc(-c3cccc(C#N)c3)cc2)c2cc(OC)c(OC)cc2CC1C (racemic)
*A* 7.10

*Q* # lookup: pIC50 of CC[C@H]1Cc2cc(OC)c(OC)cc2C(c2ccc(N3CCN(S(C)(=O)=O)CC3)cc2)=NN1C(=O)NC
*A* 6.59

P = CCC1Cc2cc(OC)c(OC)cc2C(c2ccc(N3CCN(C(C)=O)CC3)cc2)=NN1C(=O)NC (racemic)
Q = CNC(=O)N1N=C(c2ccc(-c3cccc(NS(C)(=O)=O)c3)cc2)c2cc(OC)c(OC)cc2CC1C (racemic)
*Q* Response body: label of entry with the larger pIC50; valid values P , Q . Refer to your chosen entry by its label in the reply.
*A* Q

----------
# System: LOX-IMVI cells
# Assay: Cell proliferation assay (alamarBlue), LOX-IMVI
# Type: cell-based
# Stated Conditions: Homo sapiens, 72 hours incubation, inhibition of cell proliferation
Consider the following compounds and their measured pIC50 readings.
Interpret pIC50 as the negative base-10 log of the concentration measured in mol/L.

Solved entries (count: 4):
*Q* # lookup: pIC50 of CNC(=O)N1N=C(c2ccc(-c3c(C)noc3C)cc2)c2cc(OC)c(OC)cc2CC1C (racemic)
*A* 6.37

*Q* # lookup: pIC50 of CNC(=O)N1N=C(c2ccc(-c3ccnn3C)cc2)c2cc(OC)ccc2C[C@@H]1C
*A* 6.19

*Q* # lookup: pIC50 of CNC(=O)N1N=C(c2ccc(-c3cccnc3C(F)(F)F)cc2)c2cc(OC)c(OC)cc2CC1C (racemic)
*A* 6.19

*Q* # lookup: pIC50 of CNC(=O)N1N=C(c2ccc(-c3cccnc3Cl)cc2)c2cc(OC)c(OC)cc2CC1C (racemic)
*A* 6.35

Next:
*Q* # lookup: pIC50 of CNC(=O)N1N=C(c2ccc(-c3c(C)noc3C)cc2)c2cc(OC)ccc2C[C@@H]1C
*A* 6.48

*Q* # lookup: pIC50 of CNC(=O)N1N=C(c2ccc(N3CC(F)C3)cc2)c2cc(OC)c(OC)cc2CC1C (racemic)
*A* 6.24

*Q* # lookup: pIC50 of CNC(=O)N1N=C(c2ccc(-c3cccc(NS(C)(=O)=O)c3)cc2)c2cc(OC)c(OC)cc2CC1C (racemic)
*A* 6.82

----------
# Target System: BRD4 (BD1) (Homo sapiens, UniProt O60885)
# Construct: with relatively long constructs also being possible, preferably amino acids 44-168
# Assay: Binding assay BRD4/acetylated peptide H4 (TR-FRET protein-protein interaction assay)
pIC50: −log10 of the molar value.
Readout Kind: pIC50

Solved entries (count: 5):
*Q* // fetch BRD4 (BD1) (Homo sapiens, UniProt O60885) pIC50 for CNC(=O)N1N=C(c2ccc(-c3cccc(S(C)(=O)=O)c3)cc2)c2cc(OC)c(OC)cc2CC1C (racemic)
*A* 7.52

*Q* // fetch BRD4 (BD1) (Homo sapiens, UniProt O60885) pIC50 for CNC(=O)N1N=C(c2ccc(-n3nc(C)cc3COC)cc2)c2cc(OC)ccc2C[C@@H]1C
*A* 7.52

*Q* // fetch BRD4 (BD1) (Homo sapiens, UniProt O60885) pIC50 for CCC1Cc2cc(OC)c(OC)cc2C(c2ccc(N3CCOCC3=O)cc2)=NN1C(=O)NC (racemic)
*A* 5.06

*Q* // fetch BRD4 (BD1) (Homo sapiens, UniProt O60885) pIC50 for CNC(=O)N1N=C(c2ccc(-c3cccc(F)c3)cc2)c2cc(OC)c(OC)cc2CC1C (racemic)
*A* 6.85

*Q* // fetch BRD4 (BD1) (Homo sapiens, UniProt O60885) pIC50 for CNC(=O)N1N=C(c2ccc(-c3c(C)nn(C)c3C)cc2)c2cc(OC)c(OC)cc2C[C@H]1C
*A* 5.73

P = CNC(=O)N1N=C(c2ccc(N3CC[C@H](O)C3)cc2)c2cc(OC)c(OC)cc2C[C@@H]1C
Q = CNC(=O)N1N=C(c2ccc(-c3c(C)noc3C)cc2)c2cc(OC)ccc2C[C@@H]1C
R = CNC(=O)N1N=C(c2ccc(-c3ccccc3S(C)(=O)=O)cc2)c2cc(OC)c(OC)cc2CC1C (racemic)
S = CNC(=O)N1N=C(c2ccc(N3CCN(C)CC3)cc2)c2cc(O)c(O)cc2CC1C (racemic)
*Q* Endpoint returns the given compounds ordered by ascending pIC50. Output the labels ranked as instructed.
*A* S, R, Q, P
(S: 5.99, R: 6.89, Q: 7.15, P: 7.52)

A = CNC(=O)N1N=C(c2ccc(N3CCC(OC)CC3)cc2)c2cc(OC)c(OC)cc2C[C@@H]1C
B = CNC(=O)N1N=C(c2ccc(Cl)cc2)c2cc(N3CCCCC3)ccc2CC1C (racemic)
*Q* Of the pair A and B , name the member with the lesser recorded pIC50. Refer to your chosen entry by its label in the reply.
*A* B

I = CNC(=O)N1N=C(c2ccc(-c3c(C)noc3C)cc2)c2cc(OC)c(C#N)cc2CC1C (racemic)
II = CNC(=O)N1N=C(c2ccc(-c3c(C)noc3C)cc2)c2cc(OC(F)F)c(OC(F)F)cc2CC1C (racemic)
*Q* Of the pair I and II , name the member with the lesser recorded pIC50. Refer to your chosen entry by its label in the reply.
*A* II
(II: 6.59, I: 7.15)

1 = CNC(=O)N1N=C(c2ccc(N3CCN(C)CC3)cc2)c2cc(Cl)c(OC(F)(F)F)cc2CC1C (racemic)
2 = CNC(=O)N1N=C(c2ccc(-c3cccnc3C)cc2)c2cc(OC)c(OC)cc2CC1C (racemic)
*Q* Response body: label of entry with the larger pIC50; valid values 1 , 2 . Refer to your chosen entry by its label in the reply.
*A* 2
(2: 7.05, 1: 6.44)
